These entries and their values trace back to patent US20040116336A1.

target: APJ (orphan G protein-coupled receptor protein); assay: radioligand competition, 125I-labelled compound of Ref. Ex. 1 (100 pM), CHO-A10 membrane fraction
Sequence (P35414 whole entry): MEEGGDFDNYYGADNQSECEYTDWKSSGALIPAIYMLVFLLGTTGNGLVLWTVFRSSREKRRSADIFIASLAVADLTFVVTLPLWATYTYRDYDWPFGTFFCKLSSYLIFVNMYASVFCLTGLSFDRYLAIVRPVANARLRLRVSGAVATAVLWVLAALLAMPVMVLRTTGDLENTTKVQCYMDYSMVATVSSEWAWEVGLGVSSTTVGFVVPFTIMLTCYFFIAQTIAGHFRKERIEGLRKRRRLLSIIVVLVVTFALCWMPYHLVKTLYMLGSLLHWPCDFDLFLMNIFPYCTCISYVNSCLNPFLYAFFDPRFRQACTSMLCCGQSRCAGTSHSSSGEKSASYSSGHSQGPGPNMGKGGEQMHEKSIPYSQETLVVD
Give pIC50 for every item shown.
// pIC50 here means minus log10 of the molar concentration (mol/L)

Query: Give the measured pIC50 of Arg-Pro-Arg-Leu-Phe-His-Lys-Gly-Pro-Met-Pro-Phe(Cl) (peptide) .
Response: 8.10

Query: # query: pIC50 of entry Arg-Pro-Arg-Leu-Ser-Ala-Arg-Gly-Pro-Met-Pro-Phe(Cl) (peptide)
Response: 9.04

Query: # input substance: Arg-Pro-Arg-Leu-Ser-Ala-Arg-Gly-Pro-Ala-Pro-Phe(Cl) (peptide) ; wanted: its pIC50
Response: 9.43

Query: What pIC50 value was documented for this substance, Arg-Pro-Arg-Leu-Ser-Dap(Ac)-Arg-Gly-Pro-Cha-Pro-Phe(Cl) (peptide) ?
Response: 9.16

Query: Need pIC50 of Arg-Pro-Arg-Leu-Ser-Dap-Arg-Gly-Pro-Cha-Pro-Phe(Cl) (peptide) , thanks.
Response: 9.28

Query: Field request: pIC50 | item: Arg-Pro-Arg-Leu-Ser-His-Lys-Gly-Pro-Cha-Pro-Phe(Cl) (peptide)
Response: 8.85

Query: I'd like to know its pIC50. The substance in question is Arg-Arg-Gln-Arg-Pro-Arg-Leu-Ser-Ala-Arg-Gly-Pro-Met-Pro-Phe(Cl) (peptide)
Response: 9.70

Query: Sample Arg-Pro-Arg-Leu-Ser-Ala-Arg-Gly-N-MeAla-Met-Pro-Phe(Cl) (peptide) — what was its pIC50?
Response: 9.57

Query: Which pIC50 value is on record for Arg-Arg-Gln-Arg-Pro-Arg-Leu-Ser-Ala-Arg-Gly-Pro-Met-Pro-Phe(Cl)-NH2 (peptide) ?
Response: 9.49
